Reference for the values: ChEMBL document CHEMBL1128009

Biological target: Phosphodiesterase 3 (Homo sapiens, UniProt Q14432+Q13370)
Assay: Inhibition of phosphodiesterase 3
Assay type: protein assay
readout_name: IC50 (µM)

Known IC50 results, listed for orientation:
C[C@@H]1CC(=O)NN=C1c1ccc(NN=C(C#N)C#N)cc1 : 0.008
CC1CC(=O)NN=C1c1ccc2[nH]c(-c3cc[nH]n3)nc2c1 (single isomer, unassigned; (-)) [MERIBENDAN] : 0.04

(1) CC1CC(=O)NN=C1c1cc2ccc(OCCN3CCCCC3)cc2s1 (stereo in doubt; (-))
(2) CC1CC(=O)NN=C1c1cc2ccc(OCCN3CCCCC3)cc2s1 (stereo in doubt; (+))
Of 1 and 2 , which one carries the higher reported IC50? Answer format: the label of the selected item.
2
